Molecular target: T1, TRBP-dsRBDmt1 (human, UniProt Q15633 1-366, K80A;K81A)
T1 sequence: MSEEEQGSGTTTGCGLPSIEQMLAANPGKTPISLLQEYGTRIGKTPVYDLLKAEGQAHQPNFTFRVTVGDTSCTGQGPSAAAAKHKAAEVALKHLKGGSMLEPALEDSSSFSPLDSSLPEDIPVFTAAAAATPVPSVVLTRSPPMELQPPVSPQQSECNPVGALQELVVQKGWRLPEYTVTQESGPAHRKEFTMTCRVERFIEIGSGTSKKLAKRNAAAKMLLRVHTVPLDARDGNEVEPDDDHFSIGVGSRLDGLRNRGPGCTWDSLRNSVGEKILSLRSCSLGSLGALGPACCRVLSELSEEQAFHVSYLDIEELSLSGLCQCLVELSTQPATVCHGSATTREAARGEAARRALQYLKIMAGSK
Experiment: EMSA; single-step complex; EMSA: 20 mM Tris pH 7.5, 150 mM NaCl, 2 mM EDTA, 1 mM 2-mercaptoethanol, 1 mM DTT, 50 ng/ul salmon sperm DNA, 0.4 U/ul RNasin, 0.5 nM 32P-siRNA, 30 min on ice
Conditions: protein: recombinant; tags: N-His6;C-myc; label: 32P guide strand; 2 nt 3' overhangs
assay-readout: Kd

- binder: "siLuc2-153 (dsRNA) RNA 1: UCGAAGUAUUCCGCGUACGUG RNA 2: CGUACGCGGAAUACUUCGAUU"
  assay-readout: "Kd"
  assay-value: "260 nM"
